- target of assay: FGF receptor/BKL complex
- Sequence (Q86Z14 whole entry, one chain of several): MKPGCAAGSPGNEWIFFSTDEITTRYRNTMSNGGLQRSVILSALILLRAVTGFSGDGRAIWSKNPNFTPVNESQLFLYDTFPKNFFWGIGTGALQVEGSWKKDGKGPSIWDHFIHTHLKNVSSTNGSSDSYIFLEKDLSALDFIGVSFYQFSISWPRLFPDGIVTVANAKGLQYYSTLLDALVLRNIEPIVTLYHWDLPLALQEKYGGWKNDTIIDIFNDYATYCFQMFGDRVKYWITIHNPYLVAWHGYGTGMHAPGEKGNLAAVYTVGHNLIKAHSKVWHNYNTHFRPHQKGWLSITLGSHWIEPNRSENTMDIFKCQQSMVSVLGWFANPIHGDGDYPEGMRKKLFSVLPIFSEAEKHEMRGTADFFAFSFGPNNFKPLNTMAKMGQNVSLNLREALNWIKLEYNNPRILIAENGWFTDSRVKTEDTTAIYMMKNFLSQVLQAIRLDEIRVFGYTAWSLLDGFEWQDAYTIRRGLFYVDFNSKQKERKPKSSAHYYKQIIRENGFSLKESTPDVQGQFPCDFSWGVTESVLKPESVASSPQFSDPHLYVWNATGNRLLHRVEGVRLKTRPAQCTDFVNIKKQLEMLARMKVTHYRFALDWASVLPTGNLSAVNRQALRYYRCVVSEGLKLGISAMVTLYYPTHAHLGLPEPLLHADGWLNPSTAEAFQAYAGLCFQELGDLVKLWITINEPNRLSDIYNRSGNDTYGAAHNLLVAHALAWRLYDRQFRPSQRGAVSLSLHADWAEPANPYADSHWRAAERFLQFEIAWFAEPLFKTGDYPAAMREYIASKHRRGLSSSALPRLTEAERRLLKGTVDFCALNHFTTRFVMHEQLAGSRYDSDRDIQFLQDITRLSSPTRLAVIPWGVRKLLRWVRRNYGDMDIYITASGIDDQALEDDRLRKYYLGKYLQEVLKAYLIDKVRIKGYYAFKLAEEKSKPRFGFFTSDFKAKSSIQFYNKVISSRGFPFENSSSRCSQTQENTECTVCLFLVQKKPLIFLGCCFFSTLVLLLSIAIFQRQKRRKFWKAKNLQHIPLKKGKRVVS
- procedure details: FGF receptor potency in an Erk phosphorylation assay in HEK293 overexpressing human BKL
- Assay type: cell-based
- condition details: HEK293/BKL cells, pERK after 12 minutes, absence of HSA; read-out: EC50
Catalogue of EC50 readings, one per entry.

molecule | EC50
S{Beta-180}-[2-[2-[[2-[2-[2-[[2-[2-[2-[[(4S)-4-carboxy-4-(11-carboxyundecanoyl-amino)butanoyl]amino]ethoxy]ethoxy]acetyl]amino]ethoxy]ethoxy]acetyl]amino]-ethylamino]-2-oxoethyl]-Ala[Gln121,Leu168,Cys … (protein) HPIPDSSPLLQFGGQVRQRYLYTDDAQQTEAHLEIREDGTVGGAADQSPESLLQLKALKPGVIQILGVKTSRFLCQRPDGALYGSLHFDPEACSFRELLLEDGYNVYQSEAHGLPLHLPGQKSPHRDPAPRGPARFLPLPGLPPALPEPPGILAPQPPDVGSSDPLSLVGPSQGRSPSYCS | 7 nM
Ala[Gln121, Leu168, Cys171]FGF21 (protein, N-terminal Ala, FGF21 analogue) AHPIPDSSPLLQFGGQVRQRYLYTDDAQQTEAHLEIREDGTVGGAADQSPESLLQLKALKPGVIQILGVKTSRFLCQRPDGALYGSLHFDPEACSFRELLLEDGYNVYQSEAHGLPLHLPGQKSPHRDPAPRGPARFLPLPGLPPALPEPPGILAPQPPDVGSSDPLSLVGPCQGRSPSYAS | 8 nM
S{Beta-181}-[2-[2-[[2-[2-[2-[[2-[2-[2-[[(4S)-4-carboxy-4-(19-carboxynonadecanoyl-amino)butanoyl]amino]ethoxy]ethoxy]acetyl]amino]ethoxy]ethoxy]acetyl]amino]-ethylamino]-2-oxoethyl]-Ala[Gln121,Leu168,C … (protein) HPIPDSSPLLQFGGQVRQRYLYTDDAQQTEAHLEIREDGTVGGAADQSPESLLQLKALKPGVIQILGVKTSRFLCQRPDGALYGSLHFDPEACSFRELLLEDGYNVYQSEAHGLPLHLPGQKSPHRDPAPRGPARFLPLPGLPPALPEPPGILAPQPPDVGSSDPLSLVGPSQGRSPSYAC | 58 nM
Ala[Gln121, Leu168, Cys173]FGF21 (protein, N-terminal Ala, FGF21 analogue) AHPIPDSSPLLQFGGQVRQRYLYTDDAQQTEAHLEIREDGTVGGAADQSPESLLQLKALKPGVIQILGVKTSRFLCQRPDGALYGSLHFDPEACSFRELLLEDGYNVYQSEAHGLPLHLPGQKSPHRDPAPRGPARFLPLPGLPPALPEPPGILAPQPPDVGSSDPLSLVGPSQCRSPSYAS | 4 nM
S{Beta-181}-2-aminoethylsulfanyl-Ala[Gln121, Leu168, Cys181]FGF21 (protein, N-terminal Ala; cysteamine disulfide on Cys181) AHPIPDSSPLLQFGGQVRQRYLYTDDAQQTEAHLEIREDGTVGGAADQSPESLLQLKALKPGVIQILGVKTSRFLCQRPDGALYGSLHFDPEACSFRELLLEDGYNVYQSEAHGLPLHLPGQKSPHRDPAPRGPARFLPLPGLPPALPEPPGILAPQPPDVGSSDPLSLVGPSQGRSPSYAC | 27 nM
20-[[(1S)-4-[2-[2-[2-[2-[2-[2-[[(1S)-5-acetamido-1-carboxy-pentyl]amino]-2-oxo-ethoxy]ethoxy]ethylamino]-2-oxo-ethoxy]ethoxy]ethylamino]-1-carboxy-4-oxo-butyl]amino]-20-oxo-icosanoic … (protein) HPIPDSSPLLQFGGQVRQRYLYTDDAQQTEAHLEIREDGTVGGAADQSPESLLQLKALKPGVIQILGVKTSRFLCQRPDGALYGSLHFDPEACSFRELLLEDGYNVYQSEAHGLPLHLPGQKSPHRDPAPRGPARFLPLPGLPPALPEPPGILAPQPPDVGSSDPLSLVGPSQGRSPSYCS | 6.1 nM
18-[[(1S)-4-[2-[2-[2-[2-[2-[2-(2-acetamidoethylamino)-2-oxo-ethoxy]ethoxy]ethylamino]-2-oxo-ethoxy]ethoxy]ethylamino]-1-carboxy-4-oxo-butyl]amino]-18-oxo-octadecanoic … (protein) HPIPDSSPLLQFGGQVRQRYLYTDDAQQTEAHLEIREDGTVGGAADQSPESLLQLKALKPGVIQILGVKTSRFLCQRPDGALYGSLHFDPEACSFRELLLEDGYNVYQSEAHGLPLHLPGQKSPHRDPAPRGPARFLPLPGLPPALPEPPGILAPQPPDVGSSDPLSLVCPSQGRSPSYAS | 1 nM
S{Beta-176}-2-aminoethylsulfanyl-Ala[Gln121, Leu168, Cys176]FGF21 (protein, cysteamine-protected Cys176) AHPIPDSSPLLQFGGQVRQRYLYTDDAQQTEAHLEIREDGTVGGAADQSPESLLQLKALKPGVIQILGVKTSRFLCQRPDGALYGSLHFDPEACSFRELLLEDGYNVYQSEAHGLPLHLPGQKSPHRDPAPRGPARFLPLPGLPPALPEPPGILAPQPPDVGSSDPLSLVGPSQGRCPSYAS | 227 nM
